Overview of recorded Relative therapeutic index for various compounds
system: Candida albicans ON28; assay: Therapeutic effect, oral, mice infected with Candida albicans ON28 (3), Table 2c; assay type: in vivo, ICR strain male mice infected with Candida albicans ON28; conditions: average survival days of Ketoconazole taken as 100; Candida albicans 5.7×10^6 cells/mouse i.v.; 0.1 mg/mouse oral, 2 hours after infection; 10 days observation; 10 mice
A bare number is all that is needed in reply.

Reference set (2 entries):
> print(dat)
                                   compound  measured.number
1  O=C(NC1CC1)C(F)(F)C(O)(Cn1cncn1)c1ccc(F)cc1F (single isomer, unassigned) [Example 145]              409
2  NC(=O)C(F)(F)C(O)(Cn1cncn1)c1ccc(F)cc1F (single isomer, unassigned) [Example 142]              405

Query: Please list Relative therapeutic index recorded for the compound O=C(NC1CC1)C(F)(F)C(O)(Cn1cncn1)c1ccc(F)cc1Cl (stereo not drawn)
Reply: 414

Query: Please list Relative therapeutic index recorded for the compound CNC(=O)C(F)(F)C(O)(Cn1cncn1)c1ccc(F)cc1F (stereo not drawn) [Example 11]
Reply: 423

Query: Please list Relative therapeutic index recorded for the compound CNC(=O)C(F)(F)C(O)(Cn1cncn1)c1ccc(F)cc1F (single isomer, unassigned) [Example 143]
Reply: 450

Query: Please list Relative therapeutic index recorded for the compound CCNC(=O)C(F)(F)C(O)(Cn1cncn1)c1ccc(F)cc1F (stereo not drawn)
Reply: 445

Query: Please list Relative therapeutic index recorded for the compound CNC(=O)C(F)(F)C(O)(Cn1cncn1)c1ccc(F)cc1Cl (stereo not drawn) [Example 80]
Reply: 455

Query: Please list Relative therapeutic index recorded for the compound NC(=O)C(F)(F)C(O)(Cn1cncn1)c1ccc(F)cc1Cl (single isomer, unassigned) [Example 146]
Reply: 418

Query: Please list Relative therapeutic index recorded for the compound CNC(=O)C(F)(F)C(O)(Cn1cncn1)c1ccc(F)cc1Cl (single isomer, unassigned) [Example 147]
Reply: 414

Query: Please list Relative therapeutic index recorded for the compound NC(=O)C(F)(F)C(O)(Cn1cncn1)c1ccc(F)cc1Cl (stereo not drawn) [Example 79]
Reply: 405

Query: Please list Relative therapeutic index recorded for the compound O=C(NC1CC1)C(F)(F)C(O)(Cn1cncn1)c1ccc(F)cc1F (stereo not drawn) [Example 19]
Reply: 405

Query: Please list Relative therapeutic index recorded for the compound NC(=O)C(F)(F)C(O)(Cn1cncn1)c1ccc(F)cc1F (stereo not drawn) [Example 10]
Reply: 414
